Tested on: MDA-MB-231 (breast cancer)
Measurement Description: MTT antiproliferative assay, MDA-MB-231
Format: cell-based
Reported Conditions: Homo sapiens, MDA-MB-231, 10 μM, 48 or 72 h, read-out: inhibition of cell growth, MDA-MB-231
Can you tell me inhibition at 10 µM for the items I'm about to list?

Record inhibition at 10 µM for all entries; do not skip any.
1. CO[C@]1(C)C(=O)C(=O)C=C2C1=CC=C1[C@@]2(C)CC[C@@]2(C)[C@@H]3C[C@](C)(C(=O)F)CC[C@]3(C)CC[C@]12C [Compound A8]
2. CO[C@@]1(C)C2=CC=C3[C@@](C)(CC[C@@]4(C)[C@@H]5C[C@](C)(C(=O)NO)CC[C@]5(C)CC[C@]34C)C2=CC2(O)OCCN=C21 (some centres unmarked) [Compound A47]
3. CCCC(=O)O[C@H]1C(O)C=C2C(=CC=C3[C@@]2(C)CC[C@@]2(C)[C@@H]4C[C@](C)(C(=O)OC)CC[C@]4(C)CC[C@]32C)[C@]1(C)OC (some centres unmarked) [Compound A25]
4. CO[C@@]1(C)C2=CC=C3[C@@](C)(CC[C@@]4(C)[C@@H]5C[C@](C)(C(=O)O)CC[C@]5(C)CC[C@]34C)C2=CC(=O)C1=NNC(C)=O [Compound A51]

1. 50 to 80%
2. ≥ 80%
3. < 30%
4. < 30%

Would you kindly share the measured inhibition at 10 µM for COC(=O)[C@]1(C)CC[C@]2(C)CC[C@]3(C)C4=CC=C5C(=CC(=O)C(O)C5(C)O)[C@]4(C)CC[C@@]3(C)[C@@H]2C1 (some centres unmarked) [Compound A35] ?
≥ 80%

* * *

Assignment: determine reported inhibition at 10 µM for the given molecules.
System: MDA-MB-231 (breast cancer)
Measurement Description: MTT antiproliferative assay, MDA-MB-231
Assay type: cell-based
Reported Conditions: Homo sapiens, MDA-MB-231, 10 μM, 48 or 72 h, read-out: inhibition of cell growth, MDA-MB-231

* COC(=O)[C@]1(C)CC[C@]2(C)CC[C@]3(C)C4=CC=C5C(=CC(=O)/C(=C/C#N)C5(C)O)[C@]4(C)CC[C@@]3(C)[C@@H]2C1 (stereo partly drawn) [Compound A34] | ≥ 80%

Please give inhibition at 10 µM, item by item, for the list that follows.
1. CO[C@]1(C)C(=O)C(=O)C=C2C1=CC=C1[C@@]2(C)CC[C@@]2(C)[C@@H]3C[C@](C)(C(=O)N(C)C)CC[C@]3(C)CC[C@]12C [Compound A13]
2. CO[C@@]1(C)C2=CC=C3[C@@](C)(CC[C@@]4(C)[C@@H]5C[C@](C)(C(=O)O)CC[C@]5(C)CC[C@]34C)C2=CC(=O)/C1=C\C#N [Compound A30]

1: ≥ 80%; 2: ≥ 80%

Please report inhibition at 10 µM for every entry that follows.
1. CO[C@@]1(C)C2CCC3[C@@](C)(CC[C@@]4(C)[C@@H]5C[C@](C)(C(=O)O)CC[C@]5(C)CC[C@]34C)C2=CC(=O)[C@@H]1O (stereo partly drawn) [Compound A21]
2. CO[C@@]1(C)C2=CC=C3[C@@](C)(CC[C@@]4(C)[C@@H]5C[C@](C)(CO)CC[C@]5(C)CC[C@]34C)C2=CC(=O)[C@@H]1O [Compound A18]

1: < 30%; 2: ≥ 80%

Find inhibition at 10 µM (MDA-MB-231 (breast cancer)) for the entry CCO[C@]1(C)C(=O)C(=O)C=C2C1=CC=C1[C@@]2(C)CC[C@@]2(C)[C@@H]3C[C@](C)(C(=O)O)CC[C@]3(C)CC[C@]12C [Compound A28]
50 to 80%
